Reported pIC50 is given for each of the following molecules.
Target: WRN C727 (Homo sapiens)
Construct: endogenous in cells; host or cells: OCI-AML2
Sequence (Q14191 whole entry): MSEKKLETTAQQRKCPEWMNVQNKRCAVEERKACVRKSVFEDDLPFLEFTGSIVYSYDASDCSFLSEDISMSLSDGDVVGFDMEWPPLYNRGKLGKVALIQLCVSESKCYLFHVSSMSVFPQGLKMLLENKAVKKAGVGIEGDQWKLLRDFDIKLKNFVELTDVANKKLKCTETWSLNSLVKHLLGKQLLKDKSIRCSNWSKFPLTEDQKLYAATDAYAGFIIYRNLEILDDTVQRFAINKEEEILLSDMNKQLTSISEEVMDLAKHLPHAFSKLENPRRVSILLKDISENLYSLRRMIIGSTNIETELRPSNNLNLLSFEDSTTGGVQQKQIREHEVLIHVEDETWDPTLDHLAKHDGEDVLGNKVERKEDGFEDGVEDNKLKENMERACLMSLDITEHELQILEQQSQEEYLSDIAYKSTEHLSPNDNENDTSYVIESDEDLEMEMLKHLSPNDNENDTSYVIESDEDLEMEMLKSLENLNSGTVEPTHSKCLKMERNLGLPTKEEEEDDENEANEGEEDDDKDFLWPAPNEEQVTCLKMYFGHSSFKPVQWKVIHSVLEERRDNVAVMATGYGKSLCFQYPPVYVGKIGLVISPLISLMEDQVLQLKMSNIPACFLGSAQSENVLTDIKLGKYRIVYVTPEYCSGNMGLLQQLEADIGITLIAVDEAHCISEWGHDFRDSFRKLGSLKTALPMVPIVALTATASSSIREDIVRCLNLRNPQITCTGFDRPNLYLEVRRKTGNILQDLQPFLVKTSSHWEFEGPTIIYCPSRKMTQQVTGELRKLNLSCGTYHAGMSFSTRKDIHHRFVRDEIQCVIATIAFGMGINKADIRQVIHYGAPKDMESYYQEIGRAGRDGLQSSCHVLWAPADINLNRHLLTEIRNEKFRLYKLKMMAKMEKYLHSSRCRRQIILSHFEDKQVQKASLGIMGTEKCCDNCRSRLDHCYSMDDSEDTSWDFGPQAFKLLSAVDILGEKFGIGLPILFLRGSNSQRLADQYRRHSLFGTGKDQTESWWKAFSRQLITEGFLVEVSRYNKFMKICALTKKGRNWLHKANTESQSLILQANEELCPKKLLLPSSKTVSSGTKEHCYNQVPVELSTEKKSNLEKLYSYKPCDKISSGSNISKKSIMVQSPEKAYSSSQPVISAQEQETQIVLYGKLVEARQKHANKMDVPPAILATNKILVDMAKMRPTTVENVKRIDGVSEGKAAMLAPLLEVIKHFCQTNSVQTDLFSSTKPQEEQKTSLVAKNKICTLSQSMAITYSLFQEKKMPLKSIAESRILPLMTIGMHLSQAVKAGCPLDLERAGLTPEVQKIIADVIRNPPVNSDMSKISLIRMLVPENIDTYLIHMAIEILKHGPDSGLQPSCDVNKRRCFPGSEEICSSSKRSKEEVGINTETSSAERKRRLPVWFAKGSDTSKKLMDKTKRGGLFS
Assay: Target engagement, in vitro (lysate), OCI-AML2
Assay type: binding
Details: read-out: OCI-AML2 WRN C727 TE50 in vitro (lysate)
pIC50: −log10 of the molar value.
metric: pIC50

[
  {
    "molecule": "Cn1ncc2cc(C(=O)N[C@H](/C=C/S(C)(=O)=O)C3CC3)c(Oc3ccccc3)nc21 [Example 252]",
    "assay_system": "WRN C727 (Homo sapiens)",
    "inequality_operator": "=",
    "reported_measurement": 6.46
  },
  {
    "molecule": "CO[C@H](C)[C@@H](/C=C/S(C)(=O)=O)NC(=O)c1cnc(C2CC2)nc1Oc1ccccc1 [Example 32]",
    "assay_system": "WRN C727 (Homo sapiens)",
    "inequality_operator": "<",
    "reported_measurement": 4.00
  },
  {
    "molecule": "C[C@@H](/C=C/S(C)(=O)=O)NC(=O)c1cnc(C(C)(C)C)nc1OC1CCCCC1 [Example 154]",
    "assay_system": "WRN C727 (Homo sapiens)",
    "inequality_operator": "=",
    "reported_measurement": 5.88
  },
  {
    "molecule": "CC(C)(C)c1ncc(C(=O)N[C@H](/C=C/S(C)(=O)=O)C2CCC2)c(Oc2ccccc2)n1 [Example 66]",
    "assay_system": "WRN C727 (Homo sapiens)",
    "inequality_operator": "=",
    "reported_measurement": 6.42
  }
]

---

Target: WRN C727 (Homo sapiens)
Construct: endogenous in cells; host or cells: OCI-AML2
Experiment: Target engagement, in vitro (lysate), OCI-AML2
Type: binding
Settings: read-out: OCI-AML2 WRN C727 TE50 in vitro (lysate)
pIC50: −log10 of the molar value.

[
  {
    "compound": "CC1(c2ncc(C(=O)N3CC(=CS(C)(=O)=O)C3)c(Oc3ccccc3)n2)CC1 [Example 39]",
    "inequality_operator": "=",
    "pIC50": 6.19
  },
  {
    "compound": "C=C(C#N)CNC(=O)c1cnc(C2CCCC2)nc1Oc1ccccc1 [Example 268]",
    "inequality_operator": "=",
    "pIC50": 4.63
  },
  {
    "compound": "C[C@@H](/C=C/S(C)(=O)=O)NC(=O)c1cnc(C2=CCCOC2)nc1Oc1ccccc1 [Example 211]",
    "inequality_operator": "<",
    "pIC50": 4.00
  },
  {
    "compound": "Cc1nc(C2CCCC2)nc(Oc2ccccc2)c1C(=O)N[C@@H](C)/C=C/S(C)(=O)=O [Example 162]",
    "inequality_operator": "<",
    "pIC50": 4.00
  },
  {
    "compound": "C[C@@H](/C=C/S(C)(=O)=O)NC(=O)c1ccc(C(C)(F)F)nc1Oc1ccccc1 [Example 232]",
    "inequality_operator": "=",
    "pIC50": 5.63
  },
  {
    "compound": "C[C@@H](/C=C/S(C)(=O)=O)NC(=O)c1cnc(C2CCCC2)nc1Oc1ccccn1 [Example 126]",
    "inequality_operator": "<",
    "pIC50": 4.00
  },
  {
    "compound": "C[C@@H](/C=C/S(C)(=O)=O)NC(=O)c1cnc(C2(C(F)(F)F)CC2)nc1Oc1ccccc1 [Example 101]",
    "inequality_operator": "=",
    "pIC50": 5.22
  },
  {
    "compound": "C[C@@H](/C=C/S(C)(=O)=O)NC(=O)c1c(N)nc(C2CCCC2)nc1Oc1ccccc1 [Example 255]",
    "inequality_operator": "=",
    "pIC50": 5.42
  },
  {
    "compound": "C[C@@H](/C=C/S(C)(=O)=O)NC(=O)c1cnc(C(F)(F)C(F)(F)F)nc1Oc1ccccc1 [Example 83]",
    "inequality_operator": "=",
    "pIC50": 6.42
  },
  {
    "compound": "CS(=O)(=O)/C=C/C1CN(C(=O)c2cnc(C3CC3)nc2Oc2ccccc2)C1 (single isomer, unassigned) [Example 24]",
    "inequality_operator": "<",
    "pIC50": 4.00
  },
  {
    "compound": "CC(C)c1ncc(C(=O)NC/C=C/S(C)(=O)=O)c(Oc2ccccc2)n1 [Example 14]",
    "inequality_operator": "=",
    "pIC50": 4.70
  },
  {
    "compound": "N#CC=C1CN(C(=O)c2cnc(C3CC3)nc2Oc2ccccc2)C1 [Example 264]",
    "inequality_operator": "=",
    "pIC50": 4.79
  },
  {
    "compound": "C[C@@H](/C=C/S(C)(=O)=O)NC(=O)c1cnc(C2CCCOC2)nc1Oc1ccccc1 (stereo partly shown) [Example 212]",
    "inequality_operator": "<",
    "pIC50": 4.00
  },
  {
    "compound": "C[C@@H](/C=C/S(C)(=O)=O)NC(=O)c1cnc(C2CCCC2)nc1Oc1cc(F)cc(Cl)c1 [Example 122]",
    "inequality_operator": "<",
    "pIC50": 4.00
  },
  {
    "compound": "C[C@@H](/C=C/S(C)(=O)=O)NC(=O)c1cnc(CC2CCCC2)nc1Oc1ccccc1 [Example 54]",
    "inequality_operator": "=",
    "pIC50": 4.30
  },
  {
    "compound": "CC(C)(C)c1ncc(C(=O)N[C@H](/C=C\\S(C)(=O)=O)Cc2ccccc2)c(Oc2ccccc2)n1 (single isomer, unassigned) [Example 61]",
    "inequality_operator": "<",
    "pIC50": 4.00
  },
  {
    "compound": "C[C@@H](/C=C/S(C)(=O)=O)NC(=O)c1cnc(C2CCCC2)nc1OC1CCCC1 [Example 197]",
    "inequality_operator": "=",
    "pIC50": 5.20
  },
  {
    "compound": "CC(C)(C)c1ncc(C(=O)N2CC(=CS(C)(=O)=O)C2)c(Oc2ccccc2)n1 [Example 189]",
    "inequality_operator": "=",
    "pIC50": 6.19
  },
  {
    "compound": "C[C@@H](/C=C/S(C)(=O)=O)NC(=O)c1cnc(C2CC2)c(F)c1Oc1ccccc1 [Example 205]",
    "inequality_operator": "<",
    "pIC50": 4.00
  },
  {
    "compound": "C[C@@H](/C=C/S(C)(=O)=O)NC(=O)c1cnc(C(C)(C)C)nc1OC1CCCC1 [Example 153]",
    "inequality_operator": "=",
    "pIC50": 5.73
  },
  {
    "compound": "CS(=O)(=O)/C=C/[C@@H](NC(=O)c1cnc(C(F)(F)F)nc1Oc1ccccc1)C1CC1 [Example 82]",
    "inequality_operator": "=",
    "pIC50": 6.15
  },
  {
    "compound": "C[C@@H](/C=C/S(C)(=O)=O)NC(=O)c1cnc(C2CCOC2)nc1Oc1ccccc1 (stereo partly shown) [Example 79]",
    "inequality_operator": "<",
    "pIC50": 4.00
  },
  {
    "compound": "C[C@@H](/C=C/S(C)(=O)=O)NC(=O)c1cnc(C2CCCC2)nc1OC1CCC1 [Example 127]",
    "inequality_operator": "=",
    "pIC50": 5.14
  },
  {
    "compound": "C[C@@H](/C=C/S(C)(=O)=O)NC(=O)c1cnc(C2CC2)c2c1OC1(CCCC1)C2 [Example 259]",
    "inequality_operator": "=",
    "pIC50": 6.92
  },
  {
    "compound": "CC(C)Cc1ncc(C(=O)N[C@@H](C)/C=C/S(C)(=O)=O)c(Oc2ccccc2)n1 [Example 214]",
    "inequality_operator": "<",
    "pIC50": 4.00
  },
  {
    "compound": "CC(C)Oc1cc(C2CCCC2)ccc1C(=O)NC/C=C/S(C)(=O)=O [Example 281]",
    "inequality_operator": "=",
    "pIC50": 4.38
  },
  {
    "compound": "CC(=O)Nc1nc(C2CCCC2)nc(Oc2ccccc2)c1C(=O)N[C@@H](C)/C=C/S(C)(=O)=O [Example 256]",
    "inequality_operator": "<",
    "pIC50": 4.00
  },
  {
    "compound": "CC1CC[C@@H](C)N1c1ncc(C(=O)N[C@@H](C)/C=C/S(C)(=O)=O)c(Oc2ccccc2)n1 (stereo in doubt) [Example 172]",
    "inequality_operator": "=",
    "pIC50": 4.51
  },
  {
    "compound": "CS(=O)(=O)/C=C/CNC(=O)c1cnc(N2CCCC2)nc1Oc1ccccc1 [Example 167]",
    "inequality_operator": "<",
    "pIC50": 4.00
  },
  {
    "compound": "C[C@@H](/C=C/S(C)(=O)=O)NC(=O)c1cnc(C2(c3ccccc3)CC2)nc1Oc1ccccc1 [Example 42]",
    "inequality_operator": "=",
    "pIC50": 5.35
  },
  {
    "compound": "C[C@@H](/C=C/S(C)(=O)=O)NC(=O)c1cc2c(nc1Oc1ccccc1)CCC2 [Example 243]",
    "inequality_operator": "<",
    "pIC50": 4.00
  }
]
